- TESTED_TARGET: HIV-1 protease (Human immunodeficiency virus type 1 group M subtype B, UniProt P04585)
- PROTOCOL_NOTES: biochemical
- MEASUREMENT_CONDITIONS: Ki, NaCl 0 M; 50 mM sodium formate pH 4.25, 2.5 mM DTT; 1/V vs [I]
pKi: −log10 of the molar value. Where a SMILES comes first, the peptide text is derived from it.

>  <COMPOUND>
CC(C)C[C@H](NC(=O)[C@@H](N)CC(=O)O)C(=O)N[C@@H](C)C(=O)N[C@@H](Cc1ccccc1)C(=O)O [Peptide 6, Asp--Leu--Ala--Phe] (H-DLAF-OH)

>  <pKi>
3.57

$$$$
>  <COMPOUND>
N[C@@H](CCC(=O)O)C(=O)N[C@@H](CC(=O)O)C(=O)N[C@@H](Cc1ccccc1)C(=O)O [Peptide 12, Glu--Asp--Phe] (H-Glu-Asp-Phe-OH)

>  <pKi>
4.82

$$$$
